Below, each of the molecules is paired with its reported boiling point value.
measured-quantity: boiling point (°C)

> print(dat)
                           chem.smiles  measured.quantity  unit.of.measure  measurement
1                             CCCC1CC1      boiling point               °C         69.1
2                 O=[N+]([O-])N1CCCCC1      boiling point               °C          245
3  CN(C)c1ccc(C(=N)c2ccc(N(C)C)cc2)cc1      boiling point               °C          330
4                        Cc1ccc(Cl)cc1      boiling point               °C          162
5                         Cc1cc(C)ncn1      boiling point               °C          159
6                                O=C=O      boiling point               °C        -78.5
7                     CCOC(=O)c1ccncc1      boiling point               °C          220
8                       CCOC(=O)C(C)=O      boiling point               °C          155
9                       Cc1ccc(Cl)cc1N      boiling point               °C          239
